Reference source for all entries: the supplement of paper PMC8728848

biological target: Neu5Ac(a2-3)Gal(b1-4)GlcNAc(b1-3)Gal(b1-4)[Fuc(a1-3)]GlcNAc; experiment: glycan array binding signal (z-score within array); higher = stronger binding; conditions: glycan notation: IUPAC condensed, linker removed
The entries come from a sample that favours the strongest signals as a whole.
READOUT: glycan array binding signal (z-score)
// return just the number, without any unit appended

{"BINDER": "SJCP1084 (Schistosoma japonicum) (protein) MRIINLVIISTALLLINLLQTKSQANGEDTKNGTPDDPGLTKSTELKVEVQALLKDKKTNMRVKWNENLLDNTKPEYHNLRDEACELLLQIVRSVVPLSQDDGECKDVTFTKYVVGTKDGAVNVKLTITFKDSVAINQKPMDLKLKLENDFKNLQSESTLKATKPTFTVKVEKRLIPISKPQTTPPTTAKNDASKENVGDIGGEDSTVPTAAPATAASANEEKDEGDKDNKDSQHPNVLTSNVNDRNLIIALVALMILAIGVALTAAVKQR", "glycan array binding signal (z-score)": -0.263}

Task: Bench note: what glycan array binding signal (z-score) did SAOUHSC 02783 (Staphylococcus aureus), Q5HD69 (protein) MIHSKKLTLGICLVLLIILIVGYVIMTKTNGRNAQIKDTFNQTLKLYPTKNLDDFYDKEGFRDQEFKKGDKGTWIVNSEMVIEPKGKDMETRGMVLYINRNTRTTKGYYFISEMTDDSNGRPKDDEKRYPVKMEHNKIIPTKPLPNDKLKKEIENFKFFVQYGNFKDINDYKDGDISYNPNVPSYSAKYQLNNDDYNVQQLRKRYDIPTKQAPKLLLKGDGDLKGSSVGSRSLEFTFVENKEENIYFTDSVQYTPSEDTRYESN show?
Result: -0.998
